// reported composite z-score per item
# System: Plasmodium falciparum Sir2 (PF13_0152, Sir2A)
# assay.procedure: pfSir2 binders on small-molecule microarrays, primary screen, biochemical, small-molecule microarray, 635 nm fluorescence (AID 1098);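 note: score merges spot fluorescence intensity with its signal-to-noise ratio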
# details: small-molecule microarray binding, fluorescence 635 nm; higher = more signal
measure.name: composite z-score

C[C@@H]1CC[C@H]2C(=O)O[C@H](COc3ccc(C(C)(C)C)cc3)CN2[C@H]1c1ccc(Br)cc1 ... 0.751
CN(C)CCCNC(=O)[C@@H]1c2ccccc2C(=O)N(Cc2ccccc2)[C@H]1c1ccc(CO)cc1 ... 0.0072
CC(CCC(=O)OC[C@H]1O[C@H](C#Cc2ccccc2)C=C[C@@H]1Oc1ccc(C)cc1)=NOC[C@@H](O)COCc1ccco1 ... 1.33
O=C(NN=C1C[C@@H](O)[C@@H](O)[C@@H]2[C@@H]3C(=O)N(c4ccc(F)cc4F)C(=O)[C@@H]3CC[C@@H]12)OCc1ccccc1 ... 0.328
